Values compiled from the Human Domainome abundance scans (Beltran et al. 2025).

B1: COUP transcription factor 1, residues 83 to 159; numbered along this chain, P10589 (parent)
chain: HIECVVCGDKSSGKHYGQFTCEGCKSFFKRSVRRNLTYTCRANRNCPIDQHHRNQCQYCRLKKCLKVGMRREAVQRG

Variants of: B1
assayRemarks: abundance fitness (aPCA) (normalised: wild type 0, dead -1); higher = more abundant; growth selection in yeast, the domain comes from the species named
testParameters: Homo sapiens

{"variantString": "K62Q", "abundance fitness": -0.001}
{"variantString": "S31T", "abundance fitness": -0.027}
{"variantString": "T39F", "abundance fitness": 0.23}
{"variantString": "T37M", "abundance fitness": -0.215}
{"variantString": "D49N", "abundance fitness": -0.003}
{"variantString": "Q18S", "abundance fitness": -0.028}
{"variantString": "D49P", "abundance fitness": -0.323}
{"variantString": "L61D", "abundance fitness": -0.799}
{"variantString": "N45L", "abundance fitness": -0.322}
{"variantString": "R70Y", "abundance fitness": -0.323}
{"variantString": "H52Q", "abundance fitness": 0.095}
{"variantString": "Q57A", "abundance fitness": -0.035}
{"variantString": "D49Q", "abundance fitness": -0.083}
{"variantString": "C40S", "abundance fitness": -1.08}
{"variantString": "N43S", "abundance fitness": 0.011}
{"variantString": "Q18I", "abundance fitness": -0.051}
{"variantString": "R76A", "abundance fitness": -0.13}
{"variantString": "R41D", "abundance fitness": 0.085}
{"variantString": "C21Q", "abundance fitness": -0.371}
{"variantString": "R70S", "abundance fitness": 0.144}
{"variantString": "C59W", "abundance fitness": -1.02}
{"variantString": "K25D", "abundance fitness": 0.183}
{"variantString": "I48G", "abundance fitness": -0.466}
{"variantString": "M69I", "abundance fitness": -0.484}
{"variantString": "K66V", "abundance fitness": 0.041}
{"variantString": "Q57S", "abundance fitness": -0.059}
{"variantString": "Y38M", "abundance fitness": -0.059}
{"variantString": "R71N", "abundance fitness": -0.034}
{"variantString": "S26A", "abundance fitness": -0.184}
{"variantString": "Q50S", "abundance fitness": -0.086}
{"variantString": "Q57R", "abundance fitness": -0.231}
{"variantString": "E22Y", "abundance fitness": -0.342}
{"variantString": "Q18Y", "abundance fitness": -0.389}
{"variantString": "R44V", "abundance fitness": -0.292}
{"variantString": "N35K", "abundance fitness": 0.085}
{"variantString": "R70T", "abundance fitness": 0.023}
{"variantString": "Q18V", "abundance fitness": 0.261}
{"variantString": "A42V", "abundance fitness": 0.09}
{"variantString": "A42F", "abundance fitness": -0.282}
{"variantString": "G77E", "abundance fitness": 0.06}
{"variantString": "H52I", "abundance fitness": 0.07}
{"variantString": "P47W", "abundance fitness": -0.217}
{"variantString": "L65D", "abundance fitness": 0.015}
{"variantString": "C46V", "abundance fitness": -0.433}
{"variantString": "E72S", "abundance fitness": -0.252}
{"variantString": "E22R", "abundance fitness": -0.504}
{"variantString": "R71V", "abundance fitness": -0.019}
{"variantString": "M69L", "abundance fitness": -0.027}
{"variantString": "C64T", "abundance fitness": -0.758}
{"variantString": "Q55E", "abundance fitness": 0.19}
{"variantString": "G17Q", "abundance fitness": 0.044}
{"variantString": "G68F", "abundance fitness": -0.609}
{"variantString": "F27I", "abundance fitness": -0.86}
{"variantString": "I48E", "abundance fitness": -0.23}
{"variantString": "Q57T", "abundance fitness": -0.088}
{"variantString": "V32L", "abundance fitness": -0.26}
{"variantString": "V67A", "abundance fitness": -0.099}
{"variantString": "K62M", "abundance fitness": -0.003}
{"variantString": "I48Q", "abundance fitness": -0.125}
{"variantString": "M69T", "abundance fitness": -0.719}
{"variantString": "S26L", "abundance fitness": -0.035}
{"variantString": "Q50A", "abundance fitness": 0.063}
{"variantString": "K62D", "abundance fitness": 0.053}
{"variantString": "R60V", "abundance fitness": -0.157}
{"variantString": "R76P", "abundance fitness": -0.197}
{"variantString": "V74F", "abundance fitness": -0.175}
{"variantString": "G77A", "abundance fitness": 0.12}
{"variantString": "T37G", "abundance fitness": 0.06}
{"variantString": "F19Q", "abundance fitness": 0.125}
{"variantString": "H51T", "abundance fitness": -0.091}
{"variantString": "V32E", "abundance fitness": -0.072}
{"variantString": "P47S", "abundance fitness": -0.172}
{"variantString": "Y16L", "abundance fitness": -0.152}
{"variantString": "G23L", "abundance fitness": -0.544}
{"variantString": "R30V", "abundance fitness": 0.08}
{"variantString": "S26Q", "abundance fitness": 0.247}
{"variantString": "Q18F", "abundance fitness": 0.151}
{"variantString": "H51A", "abundance fitness": 0.039}
{"variantString": "C64H", "abundance fitness": -0.577}
